The following are reported EC50 results, target or system UniProt:Q08499.

INSERT INTO assay_data (compound, assaymetric, result) VALUES
  ('COc1ncc(Cn2ncnc2C(C)(C)O)cc1-c1cccc(Cl)c1 [Example 249]', 'EC50', '> 10000 nM');

Can you share its EC50? I mean this compound: COc1ncc(Cc2cnc(N)nc2)nc1-c1cccc(OC(F)F)c1 [Example 106]
< 100 nM

Lookup COc1ncc(Cc2cnc(OC)c(-c3cccc(Cl)c3)c2)cn1 [Example 76]
< 100 nM

Would you mind doing NC(=O)C1(c2ccc(Cc3cnc(OC(F)F)c(-c4cccc(Cl)c4)c3)cc2)CC1 [Example 245] as well?
100 to 1000 nM

Now the compound FC(F)Oc1ncc(Cc2nccs2)cc1-c1cccc(Cl)c1 [Example 74]
100 to 1000 nM

Further, for CCOc1ncc(Cn2ncnc2[N+](=O)[O-])nc1-c1cccc(OC(F)F)c1 [Example 194] ?
1000 to 10000 nM

Can you handle COc1ncc(Cn2cncn2)cc1-c1cc(C)ccn1 [Example 10] next?
> 10000 nM

Now consider COc1ncc(Cc2cnn(C)c2)nc1-c1cccc(Cl)c1 [Example 58] and answer again.
< 100 nM

---

// values below are reported EC50
# system: PDE4D3 (Homo sapiens)

INSERT INTO measurements (compound, result) VALUES
  ('NC(=O)c1cncc(Cc2cnc(OC(F)F)c(-c3cccc(Cl)c3)c2)c1 [Example 70]', '1 to 10 µM');

Name the recorded EC50 for COc1ncc(Cc2cnc(C(N)=O)nc2)cc1-c1ccnc(OC(F)F)c1 [Example 120] .
0.1 to 1 µM

Moving on to COC(=O)c1ncnn1Cc1cnc(OC)c(-c2cccc(Cl)c2)c1 [Example 140]
> 10 µM

---

# system: PDE4D3 (Homo sapiens)
assayMetric: EC50

Below, each entry is followed by its recorded EC50 result.
INSERT INTO measurements (compound, system, result) VALUES
  ('COc1ncc(Cc2ccc(C#N)cc2)nc1-c1cccc(Cl)c1', 'PDE4D3 (Homo sapiens)', '0.1 to 1 µM'),
  ('COc1ncc(Cn2ccc(N)n2)cc1-c1cccc(OC(F)F)c1', 'PDE4D3 (Homo sapiens)', '< 0.1 µM'),
  ('CNc1ncn(Cc2cnc(OC(F)F)c(-c3cccc(Cl)c3)c2)n1', 'PDE4D3 (Homo sapiens)', '0.1 to 1 µM'),
  ('COc1ncc(Cn2cncn2)cc1-c1cccc(CO)c1', 'PDE4D3 (Homo sapiens)', '1 to 10 µM');

Fill in the blank: the reported EC50 of `CCOc1ncc(Cn2cnc(COC)n2)nc1-c1cccc(OC(F)F)c1` is ____.
0.1 to 1 µM

Proceed to `COc1ncc(Cn2cc(C)cn2)cc1-c1cccc(Cl)c1`
0.1 to 1 µM

---

# maps each entry to its EC50
# system: PDE4D3 (Homo sapiens, UniProt Q08499)
# Sequence (Q08499 1-673 isoform Q08499-2): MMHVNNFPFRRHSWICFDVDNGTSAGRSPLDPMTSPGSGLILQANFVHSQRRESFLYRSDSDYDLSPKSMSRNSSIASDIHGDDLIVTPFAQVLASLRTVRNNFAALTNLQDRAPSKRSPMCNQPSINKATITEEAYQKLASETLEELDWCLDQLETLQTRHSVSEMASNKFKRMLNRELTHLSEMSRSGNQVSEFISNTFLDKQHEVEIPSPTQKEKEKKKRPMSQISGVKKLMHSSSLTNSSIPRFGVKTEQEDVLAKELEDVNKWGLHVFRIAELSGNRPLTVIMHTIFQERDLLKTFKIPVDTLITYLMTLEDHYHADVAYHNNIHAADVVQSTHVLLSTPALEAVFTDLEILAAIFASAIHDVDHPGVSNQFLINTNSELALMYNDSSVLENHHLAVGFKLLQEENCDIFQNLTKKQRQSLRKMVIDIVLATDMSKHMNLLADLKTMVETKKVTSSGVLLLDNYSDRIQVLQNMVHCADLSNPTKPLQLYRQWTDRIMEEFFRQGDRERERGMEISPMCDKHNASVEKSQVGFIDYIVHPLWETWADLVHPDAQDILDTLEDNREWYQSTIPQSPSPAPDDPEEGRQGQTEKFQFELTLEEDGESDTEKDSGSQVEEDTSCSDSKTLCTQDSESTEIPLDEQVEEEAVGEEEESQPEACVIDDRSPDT

Recorded EC50, per entry:
INSERT INTO measurements (compound, assaymetric, result) VALUES
  ('COc1ncc(Cc2cnc(C(C)(C)O)nc2)cc1-c1cccc(OC(F)F)c1', 'EC50', '< 100 nM'),
  ('COc1ncc(Cc2cn[nH]c2)cc1-c1cccc(Cl)c1', 'EC50', '< 100 nM'),
  ('CCOc1ncc(Cn2cnc(CO)n2)nc1-c1cccc(OC(F)F)c1', 'EC50', '100 to 1000 nM'),
  ('CCOc1ncc(Cn2cnc(C(=O)OC)n2)nc1-c1cccc(OC(F)F)c1', 'EC50', '100 to 1000 nM');

Requested read-out EC50, target or system PDE4D3 (Homo sapiens, UniProt Q08499), entry `COc1ncc(Cc2cncnc2)cc1-c1cccc(Cl)c1`
< 100 nM

What do you have for `COc1ncc(Cn2cc(CO)nn2)nc1-c1cccc(Cl)c1` ?
100 to 1000 nM

Next up: `CCOc1ncc(Cc2ccc(C(N)=O)nc2)nc1-c1cccc(OC(F)F)c1`
< 100 nM
